I'd be grateful if you could share measured IC50 for these entries.
target system: Muscarinic acetylcholine receptor
protocol notes: In vitro displacement of [3H]oxotremorine-M from muscarinic acetylcholine receptor in rat brain cortex
Format: tissue-based
Give bare numbers, in nM.

Please review the following examples before continuing.
compound | IC50 [nM]
CCCc1cc(/C=C2\CN3CCC2CC3)on1 | 852
CCc1cc(/C=C2/CN3CCC2CC3)on1 | 867
Cc1cc(/C(F)=C2\CN3CCC2CC3)on1 | 1450
Cc1cc(/C=C2/CCCN(C)C2)on1 | 5760
CC(C)c1cc(/C=C2\CN3CCC2CC3)on1 | 911
COCc1cc(/C=C2/CN3CCC2CC3)on1 | 4000

Okay, here is my list. What is IC50 for each of these?
1. Cc1cc(/C=C2\CN3CCC2C3)on1 (centres undefined)
2. Cc1cnoc1/C=C1\CN2CCC1C2 (centres undefined)
3. Cc1cc(/C=C2/CCN(C)C2)on1
4. C(=C1/CN2CCC1CC2)/c1ccno1
5. Cc1cc(/C=C2\CCCNC2)on1
6. CCCc1cc(/C=C2/CN3CCC2CC3)on1

1. 276
2. 19
3. 4420
4. 312
5. 6950
6. 1930

###

target system: Neuronal acetylcholine receptor
protocol notes: In vitro displacement of [3H]methylcarbamylcholine from nicotinic acetylcholine receptor in rat brain cortex
reported endpoint: log10 of IC50 (log10 of the value in nM)
# log10 transformed; quantity=IC50; unit=nM

compound | log10 of IC50
CCc1cc(/C=C2\CN3CCC2CC3)on1 | 2.00
Cc1cc(/C=C2\CN3CCC2C3)on1 (stereo unspecified) | 1.46
Cc1cc(/C=C2\CN3CCCC2C3)on1 (stereo unspecified) | 2.11
Cc1cc(/C(F)=C2\CN3CCC2CC3)on1 | 2.41
Cc1cc(/C=C2\CN3CCC2CC3)on1 | 0.59
CCCc1cc(/C=C2\CN3CCC2CC3)on1 | 2.22

Okay, here is my list. What is log10 of IC50 for each of these?
1. C(=C1/CN2CCC1CC2)/c1ccno1
2. Cc1cnoc1/C=C1\CN2CCC1CC2
3. CC(C)c1cc(/C=C2\CN3CCC2CC3)on1
4. Cc1cc(/C=C2/CN3CCCC2C3)on1 (stereo unspecified)
5. Cc1cc(/C=C2/CCN(C)C2)on1

[0.22, 0.51, 2.03, 1.72, 2.89]

Okay, here is my list. What is log10 of IC50 for each of these?
1. Cc1cc(/C=C2/CCCNC2)on1
2. C/C(=C1/CN2CCC1CC2)c1cc(C)no1
3. Cc1cnoc1/C=C1\CN2CCC1C2 (stereo unspecified)
4. Cc1cc(/C=C2/CN3CCC2CC3)on1

[1.94, 2.85, -0.49, 2.70]

###

I'd be grateful if you could share measured IC50 for these entries.
target system: Neuronal acetylcholine receptor
protocol notes: In vitro displacement of [3H]methylcarbamylcholine from nicotinic acetylcholine receptor in rat brain cortex

molecule | IC50
Cc1noc(/C=C2/CN3CCC2CC3)c1C | > 1000 nM
CCCc1cc(/C=C2/CN3CCC2CC3)on1 | > 1000 nM
COCc1cc(/C=C2\CN3CCC2CC3)on1 | 218 nM
Cc1cc(C=C2CNC2)on1 | > 1000 nM
CCc1cc(/C=C2/CN3CCC2CC3)on1 | > 1000 nM

Okay, here is my list. What is IC50 for each of these?
1. Cc1cc(/C=C2/CN3CCC2C3)on1 (configuration not stated)
2. Cc1cc(/C=C2\CCCNC2)on1

["23 nM", "> 1000 nM"]

###

target system: Muscarinic acetylcholine receptor
protocol notes: In vitro displacement of [3H]oxotremorine-M from muscarinic acetylcholine receptor in rat brain cortex
Assay type: tissue-based
I'd be grateful if you could share measured IC50 for these entries.
Answers are plain numbers, in µM.

compound | reported value
Cc1cc(/C=C2\CN3CCCC2C3)on1 (configuration not stated) | 0.898
Cc1cc(C=C2CNC2)on1 | 19.3
Cc1cc(/C=C2/CN3CCCC2C3)on1 (configuration not stated) | 1.57
Cc1cc(/C=C2/CCCNC2)on1 | 7.22
Cc1cc(/C=C2\CCN(C)C2)on1 | 15.7

Okay, here is my list. What is IC50 for each of these?
1. Cc1cc(/C=C2\CN3CCC2CC3)on1
2. Cc1noc(/C=C2/CN3CCC2CC3)c1C
3. Cc1cnoc1/C=C1\CN2CCC1CC2

0.658
0.373
0.418

Okay, here is my list. What is IC50 for each of these?
1. CCc1cc(/C=C2\CN3CCC2CC3)on1
2. COCc1cc(/C=C2\CN3CCC2CC3)on1
3. Cc1cc(/C=C2/CCNC2)on1
4. CC(C)c1cc(/C=C2/CN3CCC2CC3)on1
5. Cc1cc(/C=C2/CN3CCC2C3)on1 (configuration not stated)
6. Cc1cc(/C=C2\CCCN(C)C2)on1
7. C/C(=C1/CN2CCC1CC2)c1cc(C)no1
8. Cc1cc(/C=C2/CN3CCC2CC3)on1

1: 0.566; 2: 1.47; 3: 3.29; 4: 2.28; 5: 1.02; 6: 9.54; 7: 2.263; 8: 1.81
